# System: HPAFII cells
# Procedure Summary: Platin after 72 hr LY75_A1 pre-treatment, cell viability (cell-titer glo)
# Type: cell-based
# Condition Context: HPAFII cells, oxaliplatin alone, 48 hr
pIC50: −log10 of the molar value.
Measurement Label: pIC50

Query: Param item = O=C1[O][Pt]2([NH][C@@H]3CCCC[C@H]3[NH]2)[O]C1=O [Oxaliplatin] ; retrieve measured pIC50.
Response: ~3.59
